Recorded TGI by entry
# System: HOP-92 NSCLC
# Method notes: NCI tumour cell line growth inhibition, 48 h
Readout type: TGI

Compound | Result
COCc1nc(C#N)c(N)o1 | > 10 µM
COc1ccc(CCN2C(=O)C(=O)C(C(=O)c3ccccc3)C2c2ccccc2)cc1OC (stereo not given) | > 100 µM
C(#C[C@@]12CCC[C@@H]1NCO2)c1ccc2c(c1)OCO2 | > 100 µM
O=C(O)CN1CCN2CCOCCN(CC1)CCN(CC(=O)O)CC2 | > 100 µM
O=c1oc2cc(O)ccc2c(O)c1C(c1ccc(/C=C/c2ccccc2)cc1)c1c(O)c2ccc(O)cc2oc1=O | > 100 µM
